Tested on: Mus musculus
PROTOCOL_NOTES: Toxicity in mouse assessed as tail bleeding time at 0.50 mmol/kg, po administered 30 mins prior to tail transection measured every 30 secs (reference value: 120.5 +/- 7.9 sec)
Assay type: organism-based
APPLIED_CONDITIONS: in vivo
READOUT_NAME: Time (s)
Give the value, in units of s, as a plain number.

Task: Item under review: CC1(C)CC(n2cc(CNC(=O)CC[C@@H](NC(=O)[C@@H]3Cc4c([nH]c5ccccc45)CN3C(=O)[C@@H]3Cc4c([nH]c5ccccc45)CN3)C(=O)NCc3cn(C4CC(C)(C)N([O])C(C)(C)C4)nn3)nn2)CC(C)(C)N1[O] . Reported Time?
Result: 116.6

Task: Item under review: CC(C)[C@@H](NC(=O)[C@@H]1Cc2c([nH]c3ccccc23)CN1C(=O)[C@@H]1Cc2c([nH]c3ccccc23)CN1)C(=O)NCc1cn(C2CC(C)(C)N([O])C(C)(C)C2)nn1 . Reported Time?
Result: 116.4

Task: Item under review: C[C@@H](NC(=O)[C@@H]1Cc2c([nH]c3ccccc23)CN1C(=O)[C@@H]1Cc2c([nH]c3ccccc23)CN1)C(=O)NCc1cn(C2CC(C)(C)N([O])C(C)(C)C2)nn1 . Reported Time?
Result: 119.6

====

Kindly state Time for each of the entries shown.
Tested on: Mus musculus
PROTOCOL_NOTES: Toxicity in mouse assessed as tail bleeding time at 0.50 mmol/kg, po administered 90 mins prior to tail transection measured every 30 secs (reference value: 119.3 +/- 7.7 sec)
Type: organism-based
APPLIED_CONDITIONS: in vivo
Give the value, in units of s, as a plain number.

Task: Item under review: CC1(C)CC(n2cc(CNC(=O)C[C@@H](NC(=O)[C@@H]3Cc4c([nH]c5ccccc45)CN3C(=O)[C@@H]3Cc4c([nH]c5ccccc45)CN3)C(=O)NCc3cn(C4CC(C)(C)N([O])C(C)(C)C4)nn3)nn2)CC(C)(C)N1[O] . Reported Time?
Result: 120.5

Task: Item under review: CC1(C)CC(n2cc(CNC(=O)[C@@H](Cc3ccccc3)NC(=O)[C@@H]3Cc4c([nH]c5ccccc45)CN3C(=O)[C@@H]3Cc4c([nH]c5ccccc45)CN3)nn2)CC(C)(C)N1[O] . Reported Time?
Result: 119

Task: Item under review: CC1(C)CC(n2cc(CNC(=O)[C@@H](CO)NC(=O)[C@@H]3Cc4c([nH]c5ccccc45)CN3C(=O)[C@@H]3Cc4c([nH]c5ccccc45)CN3)nn2)CC(C)(C)N1[O] . Reported Time?
Result: 118.6

Task: Item under review: CC1(C)CC(n2cc(CNC(=O)CNC(=O)[C@@H]3Cc4c([nH]c5ccccc45)CN3C(=O)[C@@H]3Cc4c([nH]c5ccccc45)CN3)nn2)CC(C)(C)N1[O] . Reported Time?
Result: 115.8

Task: Item under review: CC1(C)CC(n2cc(CNC(=O)[C@@H](Cc3c[nH]c4ccccc34)NC(=O)[C@@H]3Cc4c([nH]c5ccccc45)CN3C(=O)[C@@H]3Cc4c([nH]c5ccccc45)CN3)nn2)CC(C)(C)N1[O] . Reported Time?
Result: 117.3

Task: Item under review: CC1(C)CC(n2cc(CNC(=O)[C@@H](CC(N)=O)NC(=O)[C@@H]3Cc4c([nH]c5ccccc45)CN3C(=O)[C@@H]3Cc4c([nH]c5ccccc45)CN3)nn2)CC(C)(C)N1[O] . Reported Time?
Result: 119.2

Task: Item under review: CC1(C)CC(n2cc(CNC(=O)[C@H]3CCCN3C(=O)[C@@H]3Cc4c([nH]c5ccccc45)CN3C(=O)[C@@H]3Cc4c([nH]c5ccccc45)CN3)nn2)CC(C)(C)N1[O] . Reported Time?
Result: 119.7

Task: Item under review: CC[C@@H](C)[C@@H](NC(=O)[C@@H]1Cc2c([nH]c3ccccc23)CN1C(=O)[C@@H]1Cc2c([nH]c3ccccc23)CN1)C(=O)NCc1cn(C2CC(C)(C)N([O])C(C)(C)C2)nn1 . Reported Time?
Result: 121.7

Task: Item under review: CC1(C)CC(n2cc(CNC(=O)[C@@H](CCC(N)=O)NC(=O)[C@@H]3Cc4c([nH]c5ccccc45)CN3C(=O)[C@@H]3Cc4c([nH]c5ccccc45)CN3)nn2)CC(C)(C)N1[O] . Reported Time?
Result: 119.3

Task: Item under review: CC(C)[C@@H](NC(=O)[C@@H]1Cc2c([nH]c3ccccc23)CN1C(=O)[C@@H]1Cc2c([nH]c3ccccc23)CN1)C(=O)NCc1cn(C2CC(C)(C)N([O])C(C)(C)C2)nn1 . Reported Time?
Result: 118.7

Task: Item under review: CC(C)C[C@@H](NC(=O)[C@@H]1Cc2c([nH]c3ccccc23)CN1C(=O)[C@@H]1Cc2c([nH]c3ccccc23)CN1)C(=O)NCc1cn(C2CC(C)(C)N([O])C(C)(C)C2)nn1 . Reported Time?
Result: 119.1

====

Kindly state Time for each of the entries shown.
Tested on: Mus musculus
PROTOCOL_NOTES: Toxicity in mouse assessed as tail bleeding time at 0.50 mmol/kg, po administered 90 mins prior to tail transection measured every 30 secs (reference value: 119.3 +/- 7.7 sec)
Type: organism-based
APPLIED_CONDITIONS: in vivo
Give the value, in units of s, as a plain number.

Task: Item under review: C[C@@H](O)[C@@H](NC(=O)[C@@H]1Cc2c([nH]c3ccccc23)CN1C(=O)[C@@H]1Cc2c([nH]c3ccccc23)CN1)C(=O)NCc1cn(C2CC(C)(C)N([O])C(C)(C)C2)nn1 . Reported Time?
Result: 117.4

Task: Item under review: CC1(C)CC(n2cc(CNC(=O)[C@@H](CCCCN)NC(=O)[C@@H]3Cc4c([nH]c5ccccc45)CN3C(=O)[C@@H]3Cc4c([nH]c5ccccc45)CN3)nn2)CC(C)(C)N1[O] . Reported Time?
Result: 118.5

Task: Item under review: CSCC[C@@H](NC(=O)[C@@H]1Cc2c([nH]c3ccccc23)CN1C(=O)[C@@H]1Cc2c([nH]c3ccccc23)CN1)C(=O)NCc1cn(C2CC(C)(C)N([O])C(C)(C)C2)nn1 . Reported Time?
Result: 117.9

Task: Item under review: CC1(C)CC(n2cc(CNC(=O)[C@@H](CCCNC(=N)N([N+](=O)[O-])[N+](=O)[O-])NC(=O)[C@@H]3Cc4c([nH]c5ccccc45)CN3C(=O)[C@@H]3Cc4c([nH]c5ccccc45)CN3)nn2)CC(C)(C)N1[O] . Reported Time?
Result: 119.7

Task: Item under review: CC1(C)CC(n2cc(CNC(=O)CC[C@@H](NC(=O)[C@@H]3Cc4c([nH]c5ccccc45)CN3C(=O)[C@@H]3Cc4c([nH]c5ccccc45)CN3)C(=O)NCc3cn(C4CC(C)(C)N([O])C(C)(C)C4)nn3)nn2)CC(C)(C)N1[O] . Reported Time?
Result: 118.3

Task: Item under review: CC1(C)CC(n2cc(CNC(=O)[C@@H](Cc3c[nH]cn3)NC(=O)[C@@H]3Cc4c([nH]c5ccccc45)CN3C(=O)[C@@H]3Cc4c([nH]c5ccccc45)CN3)nn2)CC(C)(C)N1[O] . Reported Time?
Result: 118

Task: Item under review: CC1(C)CC(n2cc(CNC(=O)[C@@H](Cc3ccc(O)cc3)NC(=O)[C@@H]3Cc4c([nH]c5ccccc45)CN3C(=O)[C@@H]3Cc4c([nH]c5ccccc45)CN3)nn2)CC(C)(C)N1[O] . Reported Time?
Result: 118.6

Task: Item under review: C[C@@H](NC(=O)[C@@H]1Cc2c([nH]c3ccccc23)CN1C(=O)[C@@H]1Cc2c([nH]c3ccccc23)CN1)C(=O)NCc1cn(C2CC(C)(C)N([O])C(C)(C)C2)nn1 . Reported Time?
Result: 119.8

====

System: Mus musculus
PROTOCOL_NOTES: Toxicity in mouse assessed as tail bleeding time at 0.50 mmol/kg, po administered 30 mins prior to tail transection measured every 30 secs (reference value: 120.5 +/- 7.9 sec)
Format: organism-based
APPLIED_CONDITIONS: in vivo
READOUT_NAME: Time (s)
Give the value, in units of s, as a plain number.

Task: Item under review: CC1(C)CC(n2cc(CNC(=O)C[C@@H](NC(=O)[C@@H]3Cc4c([nH]c5ccccc45)CN3C(=O)[C@@H]3Cc4c([nH]c5ccccc45)CN3)C(=O)NCc3cn(C4CC(C)(C)N([O])C(C)(C)C4)nn3)nn2)CC(C)(C)N1[O] . Reported Time?
Result: 116.3

Task: Item under review: CC[C@@H](C)[C@@H](NC(=O)[C@@H]1Cc2c([nH]c3ccccc23)CN1C(=O)[C@@H]1Cc2c([nH]c3ccccc23)CN1)C(=O)NCc1cn(C2CC(C)(C)N([O])C(C)(C)C2)nn1 . Reported Time?
Result: 119.7

Task: Item under review: CC1(C)CC(n2cc(CNC(=O)[C@@H](Cc3c[nH]cn3)NC(=O)[C@@H]3Cc4c([nH]c5ccccc45)CN3C(=O)[C@@H]3Cc4c([nH]c5ccccc45)CN3)nn2)CC(C)(C)N1[O] . Reported Time?
Result: 119
